Reference source for all entries: ChEMBL document CHEMBL1146883

Target sequence: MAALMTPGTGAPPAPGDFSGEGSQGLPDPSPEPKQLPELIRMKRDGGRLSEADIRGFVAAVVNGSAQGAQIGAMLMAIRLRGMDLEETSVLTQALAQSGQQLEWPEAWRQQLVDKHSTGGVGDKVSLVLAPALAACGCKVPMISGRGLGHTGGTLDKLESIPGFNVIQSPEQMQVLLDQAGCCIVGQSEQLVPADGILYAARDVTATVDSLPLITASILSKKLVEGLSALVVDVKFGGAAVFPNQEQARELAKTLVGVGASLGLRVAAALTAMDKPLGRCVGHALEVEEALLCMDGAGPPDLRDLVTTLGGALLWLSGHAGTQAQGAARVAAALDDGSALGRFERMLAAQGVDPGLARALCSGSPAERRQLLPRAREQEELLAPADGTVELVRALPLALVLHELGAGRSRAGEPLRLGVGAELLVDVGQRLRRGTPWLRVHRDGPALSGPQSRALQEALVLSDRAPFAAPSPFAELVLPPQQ
experimental readout: IC50

COCCOCn1cnc2c(ncn2[C@@H]2O[C@H](COC(c3ccccc3)(c3ccccc3)c3ccccc3)[C@@H](O)[C@H]2O)c1=O :: > 100 µM

[ask] Input `COCCOCn1cnc2c(ncn2[C@@H]2O[C@H](COC(c3ccccc3)(c3ccccc3)c3ccccc3)[C@@H](OC(C)=O)[C@H]2OC(C)=O)c1=O` , output reported IC50.
[reply] > 20 µM
